Molecular target: human ALK-1 (full-length, cell surface) (human, UniProt P37023 22-503)
Assay: cell-based or functional assay
The following binders are shown together with reported pSmad1 Western IC50 nM values.
Give your result in nM as a bare value.

binder | readout_number
4.72.1 (antibody, human IgG2, V domains shown, Human IgG2 kappa antibody from a hybridoma) VH: QVQLQESGPGLVKPSQTLSLTCTVSGGSISSGEYYWSWIRQHPGKGLEWIGYIFYSGSTYYNPSLKSRVTISLDTSKNQFSLKLSSVTAADTAVYYCARESTDGMDVWGQGTTVTVSS VL: EIVLTQSPGTLSLSPGERATLSCRASQSVSSSYLAWYQRKPGQAPRLLIYGVSSRATGIPDRFSGSGSGTDFTLTISRLEPEDFAVYYCQQYGSSMITFGQGTRLEIK | 35
4.24.1 (antibody, human IgG2, V domains shown, Human IgG2 kappa antibody from a hybridoma) VH: QVQLQESGPGLVKPSQTLSLTCTVSGGSISSNDYYWNWIRQHPGKGLEWIGYIYYSGSTYYNPSLKSRVTISVDTSKNQFSLKLSSVTAADTAVYYCARESTDGMDVWGQGTTVTVSS VL: ENVLTQSPGTLSLSPGERATLSCRASQSVSSNYLAWYQQKPGQAPRLLIYGASSGATGIPDRFSGSGSGTDFTLTISRLEPEDFAVYYCQHYGSSPITFGQGTRLEIK | 82
1.183.1 (antibody, human IgG2, V domains shown) VH: QVQLQESGPGLVKPSETLSLTCTVSGGSISSYYWSWIRQPPGKGLEWIGYIYYSGSTNYNPSLKSRVTISVDTSKNQFSLKLSSVTAADTAVYYCAREDDSSGCPYFDYWGQGTLVTASS VL: EIVMTQSPATLSVSPGERATLSCRASQSVSSNLAWYQQKPGQAPRVLIYGASTRATGIPVRFSGSGSGTEFTLTISSLQSEDFAVYYCQQYNNWPFTFGPGTKVDIK | 17
1.13.1 (antibody, human IgG2, V domains shown) VH: QVHLQESGPGLVKPSETLSLTCTVSGGSVSSGDYYWNWIRQPPGKGLEWIGYIYYSGSTNYNPSLKSRITISIDTSKNQFSLKLNSVTAADTALYYCARESVAAFDYWGQGTLVTVSS VL: EIVLTQSPGTLSLSPGERATLSCRASQSISSRYLAWYQQEPGQAPRLLIYGASSRATGIPDRFSGSGSGTDFTLTISRLEPEDFAVYYCQHYGSSPITFGQGTRLEIK | 87

Lookup: Look up and report measured pSmad1 Western IC50 nM for this entry: 4.58.1 (antibody, human IgG2, V domains shown, Human IgG2 kappa antibody from a hybridoma) VH: QVQLQESGPGLVKPSQTLSLTCTVSGGSISSGDYYWNWIRQHPGKGLEWIGYIYYSGSTYYNPSLKSRVTISVATSKNQFSLKLSSVTAADTAVYYCAREATEGFDYWGQGTLVTVSS VL: EIVLTQSPGTLSLSPGERATLSCRASQSVSTTYLAWYQQKPGQAPRLLIYGASSRATGIPDRFSGSGSGTDFTLTISRLEPEDFALYYCQHYGTSSITFGQGTRLEIK
Found: 15

Lookup: Look up and report measured pSmad1 Western IC50 nM for this entry: 1.162.1 (antibody, human IgG2, V domains shown, Human IgG2 kappa antibody from a hybridoma) VH: QVQLQESGPGLVKPSQTLSLICTVSGGSISSGEYYWSWIRQHPGKGLEWIGYIYYSGSTYYNPSLKSRLTISVDTSKNQFSLKLSSVTAADTAVYYCAREGIGAFDIWGQGTMVTVSS VL: EIVLTQSPGTLSLSPGERATLSCRASQSVSSSYLAWYQQKPGQAPRLLIYGASSRATGIPDRFSGSGSGTDFTLTIIRLDPEDFAVYYCQRYGSSPITFGQGTRLEIK
Found: 15
